target: Diacylglycerol O-acyltransferase 1 (Mus musculus, UniProt Q9Z2A7)
Sequence (Q9Z2A7 whole entry): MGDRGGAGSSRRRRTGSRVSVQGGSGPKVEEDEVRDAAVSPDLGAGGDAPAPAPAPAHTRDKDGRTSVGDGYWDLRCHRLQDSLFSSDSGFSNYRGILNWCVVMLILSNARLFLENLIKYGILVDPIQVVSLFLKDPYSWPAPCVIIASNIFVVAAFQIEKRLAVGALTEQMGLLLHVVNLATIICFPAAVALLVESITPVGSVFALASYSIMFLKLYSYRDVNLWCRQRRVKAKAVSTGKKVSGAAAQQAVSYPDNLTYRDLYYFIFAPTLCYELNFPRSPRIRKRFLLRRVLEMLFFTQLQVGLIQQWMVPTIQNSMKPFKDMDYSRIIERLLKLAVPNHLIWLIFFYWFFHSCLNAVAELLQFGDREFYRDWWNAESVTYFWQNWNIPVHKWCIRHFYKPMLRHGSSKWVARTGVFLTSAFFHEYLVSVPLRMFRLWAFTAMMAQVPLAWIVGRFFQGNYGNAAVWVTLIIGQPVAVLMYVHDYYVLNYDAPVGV
run.description: Inhibition of mouse recombinant DGAT1 expressed in Sf9 cells
# IC50 listing for each entry below
endpoint.name: IC50 (nM)

compound.smiles	target	measured
O=C(Nc1ccccc1)Nc1ccc(-c2ccc(C(=O)[C@@H]3CCC[C@H]3C(=O)O)cc2)cc1	Diacylglycerol O-acyltransferase 1 (Mus musculus, UniProt Q9Z2A7)	24
O=C(Nc1ccc(-c2ccc(C(=O)[C@@H]3CCC[C@H]3C(=O)O)cc2)cc1)Nc1cc(C(F)(F)F)ccc1F	Diacylglycerol O-acyltransferase 1 (Mus musculus, UniProt Q9Z2A7)	21
O=C(O)[C@@H]1CCC[C@H]1C(=O)c1ccc(-c2ccc(Nc3nc4ccc(OC(F)(F)F)cc4s3)c(F)c2)cc1	Diacylglycerol O-acyltransferase 1 (Mus musculus, UniProt Q9Z2A7)	207
O=C(Nc1ccc(-c2ccc(C(=O)[C@@H]3CCC[C@H]3C(=O)O)cc2)cc1)Nc1cccc(C(F)(F)F)c1	Diacylglycerol O-acyltransferase 1 (Mus musculus, UniProt Q9Z2A7)	17
O=C(Nc1ccc(-c2ccc(C(=O)[C@@H]3CCC[C@H]3C(=O)O)cc2)cc1)Nc1ccc2c(c1)OCO2	Diacylglycerol O-acyltransferase 1 (Mus musculus, UniProt Q9Z2A7)	63
O=C(Nc1ccc(-c2ccc(C(=O)[C@@H]3CCC[C@H]3C(=O)O)cc2)cc1)Nc1cccc(Cl)c1	Diacylglycerol O-acyltransferase 1 (Mus musculus, UniProt Q9Z2A7)	19
N#Cc1ccc(NC(=O)Nc2ccc(-c3ccc(C(=O)[C@@H]4CCC[C@H]4C(=O)O)cc3)cc2)cc1	Diacylglycerol O-acyltransferase 1 (Mus musculus, UniProt Q9Z2A7)	603
O=C(Nc1ccc(-c2ccc(C(=O)[C@@H]3CCC[C@H]3C(=O)O)cc2)cc1)Nc1ccccc1C(F)(F)F	Diacylglycerol O-acyltransferase 1 (Mus musculus, UniProt Q9Z2A7)	16
O=C(Nc1ccc(-c2ccc(C(=O)[C@@H]3CCC[C@H]3C(=O)O)cc2)cc1)Nc1cccc(F)c1	Diacylglycerol O-acyltransferase 1 (Mus musculus, UniProt Q9Z2A7)	39
O=C(Nc1ccc(-c2ccc(C(=O)[C@@H]3CCC[C@H]3C(=O)O)cc2)cc1)Nc1ccc(C(F)(F)F)cc1	Diacylglycerol O-acyltransferase 1 (Mus musculus, UniProt Q9Z2A7)	14

###

target: UniProt O75907
Sequence (O75907 whole entry): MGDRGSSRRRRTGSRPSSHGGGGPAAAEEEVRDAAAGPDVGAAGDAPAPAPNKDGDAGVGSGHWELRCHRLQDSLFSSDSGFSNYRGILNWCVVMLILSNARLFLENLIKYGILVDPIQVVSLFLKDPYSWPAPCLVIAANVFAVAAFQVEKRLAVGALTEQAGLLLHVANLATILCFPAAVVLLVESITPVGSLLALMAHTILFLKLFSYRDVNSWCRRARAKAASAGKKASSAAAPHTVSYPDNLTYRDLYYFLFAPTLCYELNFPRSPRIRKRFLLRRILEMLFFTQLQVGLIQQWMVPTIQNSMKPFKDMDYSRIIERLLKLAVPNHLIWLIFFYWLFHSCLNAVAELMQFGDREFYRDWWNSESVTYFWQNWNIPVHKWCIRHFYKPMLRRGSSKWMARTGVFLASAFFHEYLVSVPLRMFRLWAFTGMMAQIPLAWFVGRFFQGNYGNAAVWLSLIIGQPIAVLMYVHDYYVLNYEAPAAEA
run.description: Inhibition of human recombinant DGAT1 expressed in Sf9 cells

compound.smiles	IC50
O=C(Nc1ccccc1)Nc1ccc(-c2ccc(C(=O)[C@@H]3CCC[C@@H]3C(=O)O)cc2)cc1	0.098 µM
O=C(Nc1ccccc1)Nc1ccc(-c2ccc(C(=O)[C@H]3CCC[C@@H]3C(=O)O)cc2)cc1	0.096 µM
O=C(Nc1ccccc1)Nc1ccc(-c2ccc(C(=O)[C@@H]3CCC[C@H]3C(=O)O)cc2)cc1	0.007 µM

###

run.description: Cmax in dog at 2.5 mg/kg, po
Format: ADME, organism-based, Canis lupus familiaris
Design: dose 2.5 mg/kg, route oral
test.parameters: in vivo

compound.smiles	Cmax / ng/mL
O=C(Nc1ccccc1)Nc1ccc(-c2ccc(C(=O)[C@@H]3CCC[C@H]3C(=O)O)cc2)cc1	2470

###

run.description: AUC in rat at 5 mg/kg, po
Format: ADME, organism-based
Design: dose 5 mg/kg, route oral
test.parameters: plasma
endpoint.name: AUC (ng·h/mL)

compound.smiles	endpoint.name	measured
O=C(Nc1ccccc1)Nc1ccc(-c2ccc(C(=O)[C@@H]3CCC[C@H]3C(=O)O)cc2)cc1	AUC	80200

###

run.description: Plasma clearance in dog at 2.5 mg/kg, iv
Type: ADME, organism-based, Canis lupus familiaris
Parameters: dose 2.5 mg/kg, route intravenous

compound.smiles	units	clearance
O=C(Nc1ccccc1)Nc1ccc(-c2ccc(C(=O)[C@@H]3CCC[C@H]3C(=O)O)cc2)cc1	mL/min/kg	3.83

###

run.description: Cmax in C57BL/6J mouse at 3 mg/kg, po after 1 hr
Assay type: ADME, organism-based
Design: dose 3 mg/kg, route oral
test.parameters: in vivo
endpoint.name: Cmax (ng/mL)

compound.smiles	measured
O=C(Nc1ccccc1)Nc1ccc(-c2ccc(C(=O)[C@@H]3CCC[C@H]3C(=O)O)cc2)cc1	910

###

run.description: Oral bioavailability in rat at 5 mg/kg
Format: ADME, organism-based
test.parameters: in vivo

compound.smiles	bioavailability, %
O=C(Nc1ccccc1)Nc1ccc(-c2ccc(C(=O)[C@@H]3CCC[C@H]3C(=O)O)cc2)cc1	55.2

###

run.description: Half life in dog at 2.5 mg/kg, iv
Format: ADME, organism-based, Canis lupus familiaris
Design: dose 2.5 mg/kg, route intravenous
test.parameters: in vivo

compound.smiles	units	half-life
O=C(Nc1ccccc1)Nc1ccc(-c2ccc(C(=O)[C@@H]3CCC[C@H]3C(=O)O)cc2)cc1	h	3.3

###

run.description: AUC in DIO mouse at 10 mg/kg, po
Format: ADME, organism-based
Design: dose 10 mg/kg, route oral
test.parameters: plasma
endpoint.name: AUC (ng·h/mL)

compound.smiles	endpoint.name	units	measured
O=C(Nc1ccccc1)Nc1ccc(-c2ccc(C(=O)[C@@H]3CCC[C@H]3C(=O)O)cc2)cc1	AUC	ng·h/mL	15200

###

run.description: Oral bioavailability in dog at 2.5 mg/kg
Format: ADME, organism-based, Canis lupus familiaris
test.parameters: in vivo
endpoint.name: bioavailability (%)

compound.smiles	endpoint.name	measured
O=C(Nc1ccccc1)Nc1ccc(-c2ccc(C(=O)[C@@H]3CCC[C@H]3C(=O)O)cc2)cc1	bioavailability	49.2

###

run.description: AUC in dog at 2.5 mg/kg, iv
Format: ADME, organism-based, Canis lupus familiaris
Parameters: dose 2.5 mg/kg, route intravenous
test.parameters: plasma

compound.smiles	AUC
O=C(Nc1ccccc1)Nc1ccc(-c2ccc(C(=O)[C@@H]3CCC[C@H]3C(=O)O)cc2)cc1	11100 ng·h/mL

###

run.description: Volume of distribution at terminal phase in rat at 5 mg/kg, iv
Type: ADME, organism-based
Set-up: dose 5 mg/kg, route intravenous
test.parameters: in vivo, read-out: Vbeta
endpoint.name: Vd (L/kg)

compound.smiles	measured
O=C(Nc1ccccc1)Nc1ccc(-c2ccc(C(=O)[C@@H]3CCC[C@H]3C(=O)O)cc2)cc1	0.21

###

run.description: Cmax in rat at 5 mg/kg, po
Assay type: ADME, organism-based
Set-up: dose 5 mg/kg, route oral
test.parameters: in vivo
endpoint.name: Cmax (ng/mL)

compound.smiles	endpoint.name	measured
O=C(Nc1ccccc1)Nc1ccc(-c2ccc(C(=O)[C@@H]3CCC[C@H]3C(=O)O)cc2)cc1	Cmax	8530

###

run.description: AUC in rat at 5 mg/kg, iv
Format: ADME, organism-based
Parameters: dose 5 mg/kg, route intravenous
test.parameters: plasma

compound.smiles	AUC
O=C(Nc1ccccc1)Nc1ccc(-c2ccc(C(=O)[C@@H]3CCC[C@H]3C(=O)O)cc2)cc1	145 µg·h/mL

###

run.description: Half life in rat at 5 mg/kg, iv
Type: ADME, organism-based
Set-up: dose 5 mg/kg, route intravenous
test.parameters: in vivo
endpoint.name: half-life (min)

compound.smiles	measured
O=C(Nc1ccccc1)Nc1ccc(-c2ccc(C(=O)[C@@H]3CCC[C@H]3C(=O)O)cc2)cc1	234
